Task for the reader: assign each of the following molecules its reported viability, T/C.
System: 415267-285-R-J2-PDC complex spheroid viability;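 also: luminescence used as stand-in measure of viable cells; spheroids exposed to compounds for one week before readout; 100% = DMSO vehicle control viability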
Experiment: Anticancer human tumor 415267-285-R-J2-PDC patient-derived breast carcinoma cell line growth inhibition [POLQ]
Settings: second compound 0.316 µM; first compound 0.0316 µM; active compounds read low
One number for each entry, in %.

For orientation, consider the following solved cases.
CC1COCCN1c1cc(C2(O)CC3CCC(C2)O3)c2cnn(-c3ccn[nH]3)c2n1 (stereo not given) + Cc1cccc(N(C)C(=O)C2C(O)CCN2c2nc(C)cc(C(F)(F)F)c2C#N)c1 | 17.9
CCc1cc2c(N3CCc4c(cc(Cn5ccnc5)cc4-c4cn(C)nc4C(F)(F)F)C3=O)cc(C)nc2c(OC)n1 + Cc1cccc(N(C)C(=O)C2C(O)CCN2c2nc(C)cc(C(F)(F)F)c2C#N)c1 | 97.7

I would be grateful if you could provide viability, T/C for each of the following entries.
1. CC[C@@]1(O)C(=O)OCc2c1cc1n(c2=O)Cc2cc3c(CN(C)C)c(O)ccc3nc2-1 + COC1C(OC(N)=O)C(O)C(Oc2ccc3c(O)c(NC(=O)c4ccc(O)c(CC=C(C)C)c4)c(=O)oc3c2C)OC1(C)C
2. Cn1ncnc1[C@H]1c2n[nH]c(=O)c3cc(F)cc(c23)N[C@@H]1c1ccc(F)cc1 + Nc1ccc(C#CCN(C(=O)Cc2ncc(C(F)(F)F)cc2C(F)(F)F)c2ccc(F)cc2)nn1
3. C#Cc1c(F)ccc2cc(O)cc(-c3ncc4c(N5CC6CCC(C5)N6)nc(OCC56CCCN5CC(F)C6)nc4c3F)c12 (stereo not given) + Nc1ccc(C#CCN(C(=O)Cc2ncc(C(F)(F)F)cc2C(F)(F)F)c2ccc(F)cc2)nn1

**A:**
[26.7, 95.5, 114]
